Target: T1, GARS, endogenous in H929 multiple myeloma cells (human, UniProt P41250 37-739, limits assumed)
T1 construct: Native protein pulled down from H929 lysates; also called Glycyl-tRNA synthetase; GlyRS
T1 sequence: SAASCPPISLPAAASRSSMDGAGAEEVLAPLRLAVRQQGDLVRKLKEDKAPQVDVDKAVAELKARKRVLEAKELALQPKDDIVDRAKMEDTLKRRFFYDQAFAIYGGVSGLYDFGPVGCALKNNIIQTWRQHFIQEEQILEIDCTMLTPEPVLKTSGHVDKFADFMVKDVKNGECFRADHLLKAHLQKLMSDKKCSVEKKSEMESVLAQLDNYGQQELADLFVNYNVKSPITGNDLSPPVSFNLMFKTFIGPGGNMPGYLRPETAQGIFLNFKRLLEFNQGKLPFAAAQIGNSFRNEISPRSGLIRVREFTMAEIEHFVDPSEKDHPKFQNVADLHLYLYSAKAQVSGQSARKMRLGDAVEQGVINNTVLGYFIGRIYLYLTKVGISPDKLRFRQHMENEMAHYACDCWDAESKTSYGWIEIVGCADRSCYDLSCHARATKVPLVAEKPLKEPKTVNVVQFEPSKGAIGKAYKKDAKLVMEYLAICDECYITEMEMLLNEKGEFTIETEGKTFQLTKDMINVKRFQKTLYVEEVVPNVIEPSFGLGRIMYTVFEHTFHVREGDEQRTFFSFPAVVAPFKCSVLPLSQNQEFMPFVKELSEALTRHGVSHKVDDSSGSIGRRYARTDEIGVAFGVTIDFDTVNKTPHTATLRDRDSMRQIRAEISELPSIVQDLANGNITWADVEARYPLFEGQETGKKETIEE
Experiment: flow cytometry, H929 + ICAM1 siRNA; None 455; surface target GARS putative
Listed below: mAb binding (MFI) values for each entry.
Readout label: mAb binding (MFI)

1) HW-16 chimeric rabbit-human IgG1 LA/LA/PG (antibody, V domains shown, Fc-silenced (L234A/L235A/P329G) IgG1, kappa; Alexa Fluor 647-labeled in single-step flow cytometry; Cluster C-45) VH: QSLEESGGRLVTPGTPLTLTCTASGFSLSSYAMSWVRQAPGKGLEWIGTMPTGGGTYYASWAKGRFTISKTSTTVDLQITSPTTEDTATYFCAKHWNIWGPGTLVTISS VL: DIVLTQTPSSTSTAVGDTVTINCRASQSIGRNLAWFQQKPGQPPKLLIYRASNLASGVPSRFKGSGSRTQFTLTISGVQREDAATYYCLGSYSSSDTAFGGGTELEILR; 48900
2) HW-81 chimeric rabbit-human IgG1 LA/LA/PG (antibody, V domains shown, Fc-silenced (L234A/L235A/P329G) IgG1, lambda; Alexa Fluor 647-labeled in single-step flow cytometry; Cluster C-45) VH: QKQLVESGGGLVTPGGTLTLTCTVSGFSLSSNGVSWVRQAPGKGLEYIGLIRSIGSTYYATWAKGRFTISKTSTTVDLKITSPTTEDTATYFCARGGYRNGFKLWGPGTLVTVSS VL: QPVLTQSPSVSAALGASAKLTCTLSSAHKTYYIEWYQQQHPGKAPRYLMQLQSDGSYTKGTGVPDRFSGSSSGADRYLIISSVQAEDEADYICGVIDSAVYVFGGGTQLTVTG; 640000
3) HW-28 chimeric rabbit-human IgG1 LA/LA/PG (antibody, V domains shown, Fc-silenced (L234A/L235A/P329G) IgG1, lambda; Alexa Fluor 647-labeled in single-step flow cytometry; Cluster C-45) VH: QKQLVESGGRLVTPGTPLTLTCTASGFSLSSNAMSWVRQAPGEGLQWIGTISSGGSTYYASWAKGRFTISKTSTTVTLKMTSLTTEDTATYFCARGADLHRLWGPGTLVTVSS VL: SFVLTQPASVQVNLGQTVSLTCTGKPLSRSFASWYQQKPGQAPVLVIYRDTSRPSGVPDRFSGSSSGNTATLTISGAQAGDEADYYCATSDGSGSSYQYVFGGGTQLTVTG; 33900
4) HW-45 chimeric rabbit-human IgG1 LA/LA/PG (antibody, V domains shown, Fc-silenced (L234A/L235A/P329G) IgG1, lambda; Alexa Fluor 647-labeled in single-step flow cytometry; Prototype of cluster C-45) VH: QKQLVESGGRLVTPGTPLTLTCTVSGFSLSSYAMGWFRQAPGKGLEWIGIINSYGSTYYASWAKGRFTISKTSTTVDLKITSPTTEDTATYFCGRRIGSARFDPWGPGTLVTVSS VL: SFVLTQPASVQVNLGQTVSLTCTADTLSRSYASWYQQKPGQAPVLLIYRDTRRPSGVPDRFSGSSSGNTATLTISGAQAGDEADYYCATSDGSGSSYRLVFGGGTQLTVTG; 20800
